method: Pharmacokinetic study after intravenous administration (half-life of elimination)
Assay type: in vivo, female Wistar Han rats
study-conditions: female, Wistar Han, rat, plasma concentration by anti-factor Xa bioassay, read-out: T1/2 (Rat), half-life of elimination (converted)
Method: Quantification of Compounds in Plasma Rat plasmatic concentration of compounds (μg compound/mL plasma) was determined using a bioassay based on their anti-factor Xa activity (Stachrom HP kit, Diagnostica Stago as described above). […] A specific calibration curve was preformed with each compound to be quantified in rat plasma. […] For each compound, the half-life of elimination was calculated from the concentration versus time curve thus obtained.
measurement-kind: half-life (h)
Give the value in h but do not write h after it.

Record CCC1(C(=O)O)OC(OC2C(COS(=O)(=O)O)OC(OC3C(OC)C4OCC3(C(=O)O)OC4OC3C(COS(=O)(=O)O)OC(OC)C(OS(=O)(=O)O)C3OC)C(OS(=O)(=O)O)C2OS(=O)(=O)O)C(OC)C(OC)C1OC1OC(COS(=O)(=O)O)C(OC)C(OC)C1OC (stereo not shown) [Compound PA01] . Reported half-life: 3.5
